Let's look at some compounds and their measured activity increase over dofetilide control, less the hit threshold.
study.system: Voltage-gated inwardly rectifying potassium channel KCNH2 (Homo sapiens) (UniProt Q12809)
Sequence (Q12809 whole entry, looked up): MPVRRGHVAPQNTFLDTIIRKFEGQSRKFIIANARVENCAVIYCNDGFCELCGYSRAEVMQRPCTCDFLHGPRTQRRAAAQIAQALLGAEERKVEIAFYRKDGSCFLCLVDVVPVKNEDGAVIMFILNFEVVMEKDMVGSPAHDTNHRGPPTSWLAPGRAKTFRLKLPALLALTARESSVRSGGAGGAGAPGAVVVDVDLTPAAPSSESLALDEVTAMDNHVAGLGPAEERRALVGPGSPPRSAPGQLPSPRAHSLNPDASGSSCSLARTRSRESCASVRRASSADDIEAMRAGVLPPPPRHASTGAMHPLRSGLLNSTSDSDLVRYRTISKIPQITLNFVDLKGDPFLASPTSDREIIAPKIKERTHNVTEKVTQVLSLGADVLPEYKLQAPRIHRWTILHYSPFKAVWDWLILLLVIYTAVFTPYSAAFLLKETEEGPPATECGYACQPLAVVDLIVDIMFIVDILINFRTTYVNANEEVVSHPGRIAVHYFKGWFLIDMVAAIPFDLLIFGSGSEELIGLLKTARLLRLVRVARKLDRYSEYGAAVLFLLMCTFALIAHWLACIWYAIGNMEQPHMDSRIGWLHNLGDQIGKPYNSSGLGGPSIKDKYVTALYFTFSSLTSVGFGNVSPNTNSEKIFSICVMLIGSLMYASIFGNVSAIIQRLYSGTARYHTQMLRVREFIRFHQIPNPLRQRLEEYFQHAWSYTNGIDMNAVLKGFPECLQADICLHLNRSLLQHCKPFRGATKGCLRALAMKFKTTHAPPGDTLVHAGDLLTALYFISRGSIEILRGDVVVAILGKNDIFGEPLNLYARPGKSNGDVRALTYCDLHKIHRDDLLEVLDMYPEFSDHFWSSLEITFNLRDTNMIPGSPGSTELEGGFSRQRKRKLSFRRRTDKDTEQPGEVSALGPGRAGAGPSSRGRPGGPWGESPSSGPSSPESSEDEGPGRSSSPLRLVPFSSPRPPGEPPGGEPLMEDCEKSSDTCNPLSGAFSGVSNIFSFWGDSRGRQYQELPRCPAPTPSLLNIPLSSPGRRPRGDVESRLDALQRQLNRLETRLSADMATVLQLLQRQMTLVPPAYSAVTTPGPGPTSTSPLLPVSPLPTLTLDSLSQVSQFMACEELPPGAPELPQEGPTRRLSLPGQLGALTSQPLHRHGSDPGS
assay.method.text: hERG protection against dofetilide inhibition, confirmation, cell-based, thallium flux, duplicate retest, dofetilide IC70 (AID 1835)
study.conditions: hERG cell line, FluxOR thallium flux, dofetilide-blocked; at 10 µM; active compounds read high
Screen size: about 2,400 compounds; about 750 (31%) were called active. The list shows a part of the results.
assay.metric: activity increase over dofetilide control, less the hit threshold (%)

* CCN(CCCn1c(=S)[nH]c2ncccc2c1=O)c1ccccc1 | -2
* CCCCn1c(=S)[nH]c2ccccc2c1=O | 3
* Cn1c(=O)c2c(nc(Cl)n2CC(=O)N2CCCCC2)n(C)c1=O | -11
* CC(=O)CSc1ncnc2sc3c(c12)CCC(C)C3 (stereo not drawn) | 72
* CCCCC(CC)CNC(=O)Cn1c(=S)[nH]c2ncccc2c1=O (stereo not drawn) | -12
* C=C(C)CNC(=S)Nc1nc2c(cc1C(=O)OCC)CCCC2 | -4
* CN(Cc1ccccc1)C1CCN(Cc2ccccc2[N+](=O)[O-])CC1 | -16
* O=c1c2ccccc2[nH]c(=S)n1CCc1ccccc1 | 20
* COc1ccc(CNC(=O)C(=O)c2cn(CC(=O)N3CCCC3)c3ccccc23)cc1 | -21
* CCN(CC)c1ccc(NC(=S)NC(=O)c2ccco2)cc1 | 48
* CCOc1ccc(NC(=S)NC(=O)c2ccco2)cc1 | 10
* COc1ccc(Cl)cc1C(=O)Nc1cccnc1Cl | -8
* CCOc1ccc(CC(C(N)=O)C(N)=O)cc1 | -12
* O=c1c2cc(Cl)ccc2[nH]c(=S)n1Cc1cccs1 | -8
* CCn1c(=S)[nH]c2c(c1=O)C(C)(C)Cc1ccccc1-2 | 26
* O=C(NC(=S)N(CCO)Cc1ccccc1)c1cc(Br)ccc1Cl | 7
* COc1ccccc1C(=O)NNC(=O)C(=O)Nc1cccc(Cl)c1C | 100
* Cc1ccc(Cn2c(=S)[nH]c3ccccc3c2=O)cc1 | 3
* O=C1CN(S(=O)(=O)c2ccccc2)CC(=O)N1CCc1ccccc1 | -6
* COc1ccc(NC(=O)C(=O)NNC(=O)c2ccc(Cl)cc2Cl)cc1 | 59
* CC(C)CCn1c(=S)[nH]c2ncccc2c1=O | -1
* Cc1cccc(NC(=S)N/N=C2/CCCCc3ccccc32)c1 | -11
* COc1ccccc1C(=O)Nc1ccc(C(=O)N2CCCC2)cc1 | 0
* CCOc1ccc(-c2c(=O)n(O)c3ccccc3[n+]2[O-])cc1 | 74
* CC(=O)Nc1ccccc1C(=O)C(=O)Nc1ccc(Cl)cc1 | -3
* S=c1nc(-c2ccccc2)[nH]n1-c1ccccc1 | 54
* N#C/C(=N\Nc1ccccc1F)c1nc(-c2ccccc2)cs1 | -14
* CCOC(=O)CC(=O)CSc1nc2c(C)c(C)ccc2cc1C | -7
* O=C(O)CNC(=O)c1ccc(NC(=O)/C(=C/c2ccccc2)NC(=O)c2ccco2)cc1 | -13
* Cc1ccc(C(=O)NNC(=S)NC(=O)c2ccccc2)cc1 | -40
* Cc1ccc(C(=O)N/N=C(/CC(=O)c2cccs2)C(F)(F)F)cc1 | 3
* CC1=NN(C(=O)c2cc(C)nn2C)C(O)(C(F)(F)F)C1 (stereo not drawn) | -14
* CCOC(=O)C(=CNc1cccc(C)n1)C(=O)OCC | 5
* CCOCCCn1c(=S)[nH]c2cc(C(=O)NCCOC)ccc2c1=O | -13
* Cc1sc2nc(CN3CCOCC3)[nH]c(=S)c2c1C | 92
* CCC(=O)N1c2ccc(C)cc2C2=NNC(=S)NC21O (stereo not drawn) | -6
* O=C(O)c1cc(NN=C2c3ccccc3-c3ccccc32)ccc1Cl | -4
* C/C(=N\N1CCN(C2c3ccccc3-c3ccccc32)CC1)c1ccncc1 | -18
* O=C(NC1CCN(c2ncccn2)CC1)c1c(F)cccc1F | -2
* C=CCNC(=S)Nc1nc2c(cc1C(=O)OCC)CCCC2 | -4
* C/C(=N/NC(=S)Nc1cccc(C)c1)c1cccc([N+](=O)[O-])c1 | -1
* CCOC(=O)C(=CNc1cc(C)ccn1)C(=O)OCC | 10
* CCCCCn1c(=S)[nH]c2ncccc2c1=O | 40
* COc1cc(OC)cc(C(=O)NC(=S)Nc2ccc(NC(=O)c3ccco3)cc2)c1 | -15
* COc1nccnc1NS(=O)(=O)c1ccc(NC(=S)NC(=O)c2ccccc2F)cc1 | -17
* CCOC(=O)C(=CNc1cc(C)nn1C(C)(C)C)C(=O)OCC | 2
* CCOC(=O)C(=CNc1cc(C)ccc1[N+](=O)[O-])C(=O)OCC | -17
* O=C(N/N=C/c1ccc(OC(F)F)cc1)C1=COCCO1 | -8
